The reported numbers originate from paper PMC9263442.

# systemTested: KCC2 (Rattus norvegicus)
# Construct: gene Slc12a5; KCC2b isoform expressed in T-REx-293 cells
# assayText: SuperClomeleon Cl- flux assay in HEK-293 with and without KCC2; Tl+ and […]+ influx
# Type: cell-based
pEC50: −log10 of the molar value.
observationType: pEC50

Cc1ccc(S(=O)(=O)CCCC(=O)N(CCN(C)C)c2nc3c(C)cccc3s2)cc1 [VU0500469] = 4.85

---

# systemTested: KCC2 (Rattus norvegicus, UniProt Q63633)
# Construct: gene Slc12a5; KCC2b isoform expressed in T-REx-293 cells
# Sequence (Q63633 43-1139 limits assumed): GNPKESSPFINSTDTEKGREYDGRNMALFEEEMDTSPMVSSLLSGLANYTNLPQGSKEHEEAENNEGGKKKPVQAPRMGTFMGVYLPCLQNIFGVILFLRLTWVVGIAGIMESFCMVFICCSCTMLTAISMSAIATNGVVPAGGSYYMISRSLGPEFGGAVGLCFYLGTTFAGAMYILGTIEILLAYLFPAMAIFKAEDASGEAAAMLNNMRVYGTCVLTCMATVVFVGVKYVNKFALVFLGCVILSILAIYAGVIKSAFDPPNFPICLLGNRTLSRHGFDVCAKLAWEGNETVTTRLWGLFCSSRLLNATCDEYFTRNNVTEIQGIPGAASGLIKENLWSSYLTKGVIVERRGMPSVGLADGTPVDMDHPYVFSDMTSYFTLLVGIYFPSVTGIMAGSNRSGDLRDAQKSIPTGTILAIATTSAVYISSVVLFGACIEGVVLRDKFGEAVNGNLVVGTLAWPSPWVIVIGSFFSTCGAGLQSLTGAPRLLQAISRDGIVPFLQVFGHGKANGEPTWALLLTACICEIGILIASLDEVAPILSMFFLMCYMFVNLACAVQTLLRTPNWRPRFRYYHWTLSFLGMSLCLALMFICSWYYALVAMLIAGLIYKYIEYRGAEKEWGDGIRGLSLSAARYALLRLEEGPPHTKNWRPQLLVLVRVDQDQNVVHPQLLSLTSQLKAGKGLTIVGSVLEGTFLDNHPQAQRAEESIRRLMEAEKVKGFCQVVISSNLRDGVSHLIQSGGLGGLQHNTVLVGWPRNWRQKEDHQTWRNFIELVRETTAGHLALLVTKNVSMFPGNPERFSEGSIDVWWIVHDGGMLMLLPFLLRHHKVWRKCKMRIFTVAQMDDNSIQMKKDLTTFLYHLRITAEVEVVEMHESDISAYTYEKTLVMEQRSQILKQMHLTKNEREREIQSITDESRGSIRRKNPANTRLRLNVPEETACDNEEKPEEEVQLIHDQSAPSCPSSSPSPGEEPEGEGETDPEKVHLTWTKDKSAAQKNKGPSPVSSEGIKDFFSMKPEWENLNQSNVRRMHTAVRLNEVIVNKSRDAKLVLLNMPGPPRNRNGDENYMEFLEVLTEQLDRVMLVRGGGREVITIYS
# assayText: SuperClomeleon Cl- flux assay in HEK-293 overexpressing KCC2
# Type: cell-based
pEC50: −log10 of the molar value.
observationType: pEC50

Cc1cccc2sc(N(CCN(C)C)C(=O)CCCS(=O)(=O)c3ccc(F)cc3)nc12 = 4.77
